target: human LPA1 (Homo sapiens, UniProt Q92633); construct: expressed in transfected cells; host or cells: Chinese hamster ovary (CHO) cells; assay: LPA1 functional antagonist assay (calcium flux); format: cell-based; conditions: CHO cells overexpressing human LPA1; calcium flux induced by 10 nM LPA; read-out: hLPA1 IC50
Sequence (Q92633 whole entry): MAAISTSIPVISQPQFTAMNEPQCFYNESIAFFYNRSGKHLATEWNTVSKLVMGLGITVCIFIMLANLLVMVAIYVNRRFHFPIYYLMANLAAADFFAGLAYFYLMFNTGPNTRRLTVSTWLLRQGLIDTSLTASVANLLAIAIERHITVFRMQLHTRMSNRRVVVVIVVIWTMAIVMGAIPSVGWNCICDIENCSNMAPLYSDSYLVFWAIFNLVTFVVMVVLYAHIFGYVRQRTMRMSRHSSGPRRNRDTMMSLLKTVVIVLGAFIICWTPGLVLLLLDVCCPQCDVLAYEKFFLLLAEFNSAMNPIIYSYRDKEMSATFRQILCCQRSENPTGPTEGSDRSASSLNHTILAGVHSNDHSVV
experimental endpoint: IC50 (nM)

1) Cc1nc(-c2nnn(C)c2CNC(=O)N(C)Cc2ccccc2)ccc1O[C@H]1CCC[C@H](C(=O)O)C1 [Example 109] | 85
2) Cc1nc(-c2nnn(C)c2CN(C)C(=O)OCc2ccccc2)ccc1O[C@H]1CCC[C@H](C(=O)O)C1 [Example 35] | 56
3) Cc1nc(-c2nnn(C)c2NC(=O)OCC(C)C)ccc1O[C@H]1CCC[C@H](C(=O)O)C1 [Example 78] | 29
4) Cc1nc(-c2nnn(C)c2CNC(=O)OC[C@@H]2CC2(F)F)ccc1O[C@H]1CCC[C@H](C(=O)O)C1 [Example 208] | 57

* * *

target: human LPA1 (Homo sapiens, UniProt Q92633); construct: expressed in transfected cells; host or cells: Chinese hamster ovary (CHO) cells; experiment: LPA1 functional antagonist assay (calcium flux); format: cell-based; details: CHO cells overexpressing human LPA1; calcium flux induced by 10 nM LPA; read-out: hLPA1 IC50
pIC50: −log10 of the molar value.
experimental endpoint: pIC50

1) Cc1nc(-c2nnn(C)c2NC(=O)OC(C)C2CC2)ccc1O[C@H]1CCC[C@H](C(=O)O)C1 (mixture of isomers) | 7.07
2) Cc1nc(-c2nnn(C)c2NC(=O)OCC(C)C)c(F)cc1O[C@H]1CCC[C@H](C(=O)O)C1 | 6.82
3) Cc1nc(-c2nnn(C)c2NC(=O)OCC(C)F)ccc1O[C@H]1CCC[C@H](C(=O)O)C1 (stereo partly shown) | 6.32
4) Cc1nc(-c2nnn(C)c2CNC(=O)OCC2(C)CC2)ccc1O[C@H]1CCC[C@H](C(=O)O)C1 | 7.32
5) Cc1nc(-c2nnn(C)c2CNC(=O)NC2CC3CCC2C3)ccc1O[C@H]1CCC[C@H](C(=O)O)C1 (stereo partly shown) | 6.38
6) CCc1nc(-c2nnn(C)c2CNC(=O)NCC2CC2)ccc1O[C@H]1CCC[C@H](C(=O)O)C1 | 6.57
7) CCCCOC(=O)NCc1c(-c2ccc(O[C@H]3CCC[C@H](C(=O)O)C3)c(C(F)(F)F)n2)nnn1C | 7.85

* * *

Documented pIC50 across a set of compounds
Target: human LPA1 (Homo sapiens, UniProt Q92633)
Construct: expressed in transfected cells; host or cells: Chinese hamster ovary (CHO) cells
Assay: LPA1 functional antagonist assay (calcium flux)
Type: cell-based
Details: CHO cells overexpressing human LPA1; calcium flux induced by 10 nM LPA; read-out: hLPA1 IC50
Experimental: The effectiveness of compounds of the present invention as LPA1 inhibitors can be determined in an LPA1 functional antagonist assay as follows: The cells were then equilibrated to room temperature for 30 minutes before the assay. […] IC50 values were determined by fitting data to a 4-parameter logistic equation (GraphPad Prism, San Diego Calif.).
pIC50: −log10 of the molar value.
experimental endpoint: pIC50

1) Cc1nc(-c2nnn(C)c2CNC(=O)OCC(C)(C)C)ccc1O[C@H]1CCC[C@H](C(=O)O)C1 | 7.46
2) Cc1nc(-c2nnn(C)c2CCNC(=O)CCC(C)C)ccc1O[C@H]1CCC[C@H](C(=O)O)C1 | 5.99
3) Cc1nc(-c2nnn(C)c2CNS(=O)(=O)N(C)Cc2ccccc2)ccc1O[C@H]1CCC[C@H](C(=O)O)C1 | 6.50
4) Cc1nc(-c2nnn(C)c2CNC(=O)N(C)C(C)C(C)C)ccc1O[C@H]1CCC[C@H](C(=O)O)C1 (single isomer, unassigned) | 5.92
5) CCC1(COC(=O)NCc2c(-c3nc(C)c(O[C@H]4CCC[C@H](C(=O)O)C4)cc3F)nnn2C)CC1 | 7.34
6) Cc1nc(-c2nnn(C)c2NC(=O)N[C@H](C)c2ccccc2)ccc1O[C@H]1CCC[C@H](C(=O)O)C1 | 6.99
7) Cc1nc(-c2nnn(C)c2CNC(=O)NC(CF)c2ccccc2)ccc1O[C@H]1CCC[C@H](C(=O)O)C1 (mixture of isomers) | 6.26
8) Cc1nc(-c2nnn(C)c2CNC(=O)OCC2CC2(F)F)ccc1OC1CCCC(C(=O)O)C1 (single isomer, unassigned) | 7.36
9) Cc1nc(-c2nnn(C)c2CNC(=O)NCC2CC(F)(F)C2)ccc1O[C@H]1CCC[C@H](C(=O)O)C1 | 6.03
10) Cc1nc(-c2nnn(C)c2NC(=O)OCC2(C)CC2)ccc1O[C@H]1CCC[C@H](C(=O)O)C1 | 7.22
11) Cc1nc(-c2nnn(C)c2CNC(=O)OCc2ccccc2)ccc1O[C@@H]1CCC[C@@](F)(C(=O)O)C1 (single isomer, unassigned) [Example 211] | 6.72
